System: PPARg:RXRa IVT, anti-PPARg (NR concentration 270 nM, RXRa partner concentration 90 nM)
METHOD SUMMARY: PBM binding z-score (relative to random genomic background probes); higher = stronger binding; sequences stand for … in GC…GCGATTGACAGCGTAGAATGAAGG
Please use class 1 whenever PBM binding z-score is not below 3, and class 0 whenever it is.

Below are worked cases with known answers.
> print(dat)
                             residues    class
1  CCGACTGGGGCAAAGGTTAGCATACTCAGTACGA  class 1
2  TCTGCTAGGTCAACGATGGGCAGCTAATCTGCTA  class 1
3  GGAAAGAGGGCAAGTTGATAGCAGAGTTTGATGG  class 0
4  ATATGTAGGATACATCCGGGTCATTCAGGCTATG  class 1
5  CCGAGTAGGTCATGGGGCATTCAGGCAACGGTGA  class 1

Query :: Does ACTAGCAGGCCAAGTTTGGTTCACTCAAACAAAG have a reported PBM binding z-score of at least 3?
Result :: class 0

Query :: Also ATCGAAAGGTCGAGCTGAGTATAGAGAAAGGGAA ?
Result :: class 0

Query :: Repeat with CGTCAAAGTTCAAGGTAACGTAGCAGAAAGCAGC
Result :: class 0

* * *

Tested on: RARa homodimer (NR concentration 270 nM)
METHOD SUMMARY: PBM binding z-score (relative to random genomic background probes); higher = stronger binding; sequences stand for … in GC…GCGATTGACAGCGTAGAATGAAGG
Quick rule for you: PBM binding z-score at -0.4 or higher means 1, lower means -1.

Some solved cases for reference:
> print(dat)
                             residues  class
1  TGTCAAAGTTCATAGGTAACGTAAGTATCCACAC      1
2  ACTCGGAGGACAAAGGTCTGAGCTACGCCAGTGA     -1
3  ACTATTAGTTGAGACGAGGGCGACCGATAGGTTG      1
4  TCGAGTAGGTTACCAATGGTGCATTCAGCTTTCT     -1
5  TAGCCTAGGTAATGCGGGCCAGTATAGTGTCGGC     -1

With those in mind, consider the next sequence.
Query :: Identify whether the reported PBM binding z-score of the following sequence is -0.4 or greater: GATACAGGGTCAGCTAGAGGCCACAGTATGGAAA
Result :: 1

* * *

Record form. Attribute: PBM binding z-score. Fill in for each entry.
Tested on: PPARg homodimer (NR concentration 180 nM)
METHOD SUMMARY: PBM binding z-score (relative to random genomic background probes); higher = stronger binding; sequences stand for … in GC…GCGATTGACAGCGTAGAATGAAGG
Give bare numbers.

> print(dat)
                             residues                         system.under.test  measurement
1  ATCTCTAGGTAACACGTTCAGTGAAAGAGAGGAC  PPARg homodimer (NR concentration 180 nM)        0.135

Below are some sequences; for each one, tell me its PBM binding z-score.
1. CTACCAAGGTGAACAAGCTCGTTGATTACTATTC
2. CCTACTGGGCCATTCAGAGGTCTTTGATCATATG
3. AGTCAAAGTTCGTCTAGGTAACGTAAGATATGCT
4. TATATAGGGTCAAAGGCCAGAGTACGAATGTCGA
5. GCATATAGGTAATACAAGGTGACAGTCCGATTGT

Result ::
0.000283
0.234
1.41
2
0.847

For each of the sequences below, note its PBM binding z-score.
1. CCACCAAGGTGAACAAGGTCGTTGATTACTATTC
2. AAAACAGGGTCACTAGGCCAGAGTAGGTACGAAT
3. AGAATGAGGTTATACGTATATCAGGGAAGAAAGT
4. GCTATTAGTTGAAAGGGCAACCAAATGATTCTCG

Result ::
1. 1.61
2. 2.68
3. 1.21
4. 0.903

Query :: May I ask what PBM binding z-score has been recorded for TCTGCTACGTCAGTTGGTCAGCTAACGAGCTGCC ?
Result :: -2.23
